# System: normal human foreskin fibroblasts
# Protocol: In-vitro cell viability (MTT) assay, normal fibroblasts
# Type: cell-based
# Assay Setup: Homo sapiens, Fibroblast, 48 h, read-out: Anti-proliferative activity IC50
Assay Metric: IC50

Lookup result for O=C(NO)Nc1cccc(-c2ccccn2)n1 [Compound 1B, 1-([2,2′-bipyridin]-6-yl)-3-hydroxyurea] ; measured IC50: > 100 µM

O=C(NO)c1cccc(-c2ccccn2)n1 [Compound 1A, N-hydroxy-2,2′-bipyridine-6-carboxamide] yielded IC50 of > 100 µM

Noted for c1ccc(-c2ccccn2)nc1 : its IC50 reads > 100 µM

----------
# Tested on: MCF7 (breast) cells
# Protocol: In-vitro cell viability (MTT) assay, MCF7
# Format: cell-based, human
# Assay Setup: 48 h, read-out: Anti-proliferative activity IC50
Assay Metric: IC50

// IC50 value for NC(=O)NO [HU, Hydroxyurea, reference compound] : > 100 µM
